We begin with a simple list: items and their reported viability, T/C.
Test system: PDC 899932-113-R3-J6 complex spheroid viability
method.description: Anticancer human tumor 899932-113-R3-J6-PDC patient-derived melanoma cell line growth inhibition [RAS]
measurement.conditions: second compound 10 µM; first compound 0.00316 µM; hits give low values

compound	study.system	viability, T/C (%)
C=CC(=O)Nc1cc(Nc2nccc(-c3cn(C)c4ccccc34)n2)c(OC)cc1N(C)CCN(C)C + C#Cc1c(F)ccc2cc(O)cc(-c3ncc4c(N5CC6CCC(C5)N6)nc(OCC56CCCN5CC(F)C6)nc4c3F)c12	PDC 899932-113-R3-J6 complex spheroid viability	123
O=C(c1ccc(F)c(F)c1Nc1ccc(I)cc1F)N1CC(O)([C@@H]2CCCCN2)C1 + C#Cc1c(F)ccc2cc(O)cc(-c3ncc4c(N5CC6CCC(C5)N6)nc(OCC56CCCN5CC(F)C6)nc4c3F)c12	PDC 899932-113-R3-J6 complex spheroid viability	91.4
C=CC(=O)N1CCN(c2nc(OCC3CCCN3C)nc3c(F)c(-c4nc(N)cc(C)c4C(F)(F)F)c(Cl)cc23)C(C)C1 (stereo unspecified) + C#Cc1c(F)ccc2cc(O)cc(-c3ncc4c(N5CC6CCC(C5)N6)nc(OCC56CCCN5CC(F)C6)nc4c3F)c12	PDC 899932-113-R3-J6 complex spheroid viability	118
CCN1CCN(Cc2ccc(Nc3ncc(F)c(-c4cc(F)c5nc(C)n(C(C)C)c5c4)n3)nc2)CC1 + C#Cc1c(F)ccc2cc(O)cc(-c3ncc4c(N5CC6CCC(C5)N6)nc(OCC56CCCN5CC(F)C6)nc4c3F)c12	PDC 899932-113-R3-J6 complex spheroid viability	125
CC(C)n1nc(-c2ccc3oc(N)nc3c2)c2c(N)ncnc21 + C#Cc1c(F)ccc2cc(O)cc(-c3ncc4c(N5CC6CCC(C5)N6)nc(OCC56CCCN5CC(F)C6)nc4c3F)c12	PDC 899932-113-R3-J6 complex spheroid viability	123
Nc1ccn(C2OC(CO)C(O)C2(F)F)c(=O)n1 (stereo unspecified) + C#Cc1c(F)ccc2cc(O)cc(-c3ncc4c(N5CC6CCC(C5)N6)nc(OCC56CCCN5CC(F)C6)nc4c3F)c12	PDC 899932-113-R3-J6 complex spheroid viability	102

---

Tested on: PDC 899932-113-R3-J6 complex spheroid viability
method.description: Anticancer human tumor 899932-113-R3-J6-PDC cell line growth inhibition [RAS]; active means viability on the fitted dose curve at most 10% of control; inactive means the rest;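 further: spheroids exposed to agents for seven days before readout; 100% = DMSO vehicle control wells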
measurement.conditions: second compound 1 µM; first compound 3.16 µM
Possible outcomes: 1 = active, 0 = inactive

compound	study.system	class.name
NC1c2ccccc2OC12CCN(c1cnc3c(N4CCCc5ncccc54)n[nH]c3n1)CC2 (stereo unspecified) + C=CC(=O)N1CCN(c2nc(OCC3CCCN3C)nc3c(F)c(-c4nc(N)cc(C)c4C(F)(F)F)c(Cl)cc23)C(C)C1	PDC 899932-113-R3-J6 complex spheroid viability	0
CC(Nc1ccc2c(c1)OCCn1cc(N3C(=O)OCC3C(F)F)nc1-2)C(N)=O (stereo unspecified) + C=CC(=O)N1CCN(c2nc(OCC3CCCN3C)nc3c(F)c(-c4nc(N)cc(C)c4C(F)(F)F)c(Cl)cc23)C(C)C1	PDC 899932-113-R3-J6 complex spheroid viability	0
CC(C)NCC(C(=O)N1CCN(c2ncnc3c2C(C)CC3O)CC1)c1ccc(Cl)cc1 (stereo unspecified) + C#Cc1c(F)ccc2cc(O)cc(-c3ncc4c(N5CC6CCC(C5)N6)nc(OCC56CCCN5CC(F)C6)nc4c3F)c12	PDC 899932-113-R3-J6 complex spheroid viability	0
CC(C)NCC(C(=O)N1CCN(c2ncnc3c2C(C)CC3O)CC1)c1ccc(Cl)cc1 (stereo unspecified) + C=CC(=O)N1CCN(c2nc(OCC3CCCN3C)nc3c(F)c(-c4nc(N)cc(C)c4C(F)(F)F)c(Cl)cc23)C(C)C1	PDC 899932-113-R3-J6 complex spheroid viability	0
CC(=O)OC12COC1CC(O)C1(C)C(=O)C(O)C3=C(C)C(OC(=O)C(O)C(NC(=O)OC(C)(C)C)c4ccccc4)CC(O)(C(OC(=O)c4ccccc4)C21)C3(C)C (stereo unspecified) + C=CC(=O)N1CCN(c2nc(OCC3CCCN3C)nc3c(F)c(-c4nc(N)cc(C)c4C(F)(F)F)c(Cl)cc23)C(C)C1	PDC 899932-113-R3-J6 complex spheroid viability	0
CC1(O)CCCC1n1c(=O)c(C(F)F)cc2cnc(NC3CCN(S(C)(=O)=O)CC3)nc21 (stereo unspecified) + C#Cc1c(F)ccc2cc(O)cc(-c3ncc4c(N5CC6CCC(C5)N6)nc(OCC56CCCN5CC(F)C6)nc4c3F)c12	PDC 899932-113-R3-J6 complex spheroid viability	0
CC(Nc1ccc2c(c1)OCCn1cc(N3C(=O)OCC3C(F)F)nc1-2)C(N)=O (stereo unspecified) + C#Cc1c(F)ccc2cc(O)cc(-c3ncc4c(N5CC6CCC(C5)N6)nc(OCC56CCCN5CC(F)C6)nc4c3F)c12	PDC 899932-113-R3-J6 complex spheroid viability	0
Cc1nc(N2CCC3(CC2)COC(C)C3N)c(CO)nc1Sc1ccnc(N)c1Cl (stereo unspecified) + C=CC(=O)N1CCN(c2nc(OCC3CCCN3C)nc3c(F)c(-c4nc(N)cc(C)c4C(F)(F)F)c(Cl)cc23)C(C)C1	PDC 899932-113-R3-J6 complex spheroid viability	0
CC(=O)OC12COC1CC(O)C1(C)C(=O)C(O)C3=C(C)C(OC(=O)C(O)C(NC(=O)OC(C)(C)C)c4ccccc4)CC(O)(C(OC(=O)c4ccccc4)C21)C3(C)C (stereo unspecified) + C#Cc1c(F)ccc2cc(O)cc(-c3ncc4c(N5CC6CCC(C5)N6)nc(OCC56CCCN5CC(F)C6)nc4c3F)c12	PDC 899932-113-R3-J6 complex spheroid viability	0
NC1c2ccccc2OC12CCN(c1cnc3c(N4CCCc5ncccc54)n[nH]c3n1)CC2 (stereo unspecified) + C#Cc1c(F)ccc2cc(O)cc(-c3ncc4c(N5CC6CCC(C5)N6)nc(OCC56CCCN5CC(F)C6)nc4c3F)c12	PDC 899932-113-R3-J6 complex spheroid viability	0
CCC(CC)c1cc(NC2CCC(N)C2)n2nccc2n1 (stereo unspecified) + C=CC(=O)N1CCN(c2nc(OCC3CCCN3C)nc3c(F)c(-c4nc(N)cc(C)c4C(F)(F)F)c(Cl)cc23)C(C)C1	PDC 899932-113-R3-J6 complex spheroid viability	1
CC1(O)CCCC1n1c(=O)c(C(F)F)cc2cnc(NC3CCN(S(C)(=O)=O)CC3)nc21 (stereo unspecified) + C=CC(=O)N1CCN(c2nc(OCC3CCCN3C)nc3c(F)c(-c4nc(N)cc(C)c4C(F)(F)F)c(Cl)cc23)C(C)C1	PDC 899932-113-R3-J6 complex spheroid viability	0
CCC(CC)c1cc(NC2CCC(N)C2)n2nccc2n1 (stereo unspecified) + C#Cc1c(F)ccc2cc(O)cc(-c3ncc4c(N5CC6CCC(C5)N6)nc(OCC56CCCN5CC(F)C6)nc4c3F)c12	PDC 899932-113-R3-J6 complex spheroid viability	1
C[C@@H](NC(=O)c1ncnc(N)c1Cl)c1ncc(C(=O)Nc2cc(C(F)(F)F)c(Cl)cn2)s1 + C#Cc1c(F)ccc2cc(O)cc(-c3ncc4c(N5CC6CCC(C5)N6)nc(OCC56CCCN5CC(F)C6)nc4c3F)c12	PDC 899932-113-R3-J6 complex spheroid viability	0
Cc1nc(N2CCC3(CC2)COC(C)C3N)c(CO)nc1Sc1ccnc(N)c1Cl (stereo unspecified) + C#Cc1c(F)ccc2cc(O)cc(-c3ncc4c(N5CC6CCC(C5)N6)nc(OCC56CCCN5CC(F)C6)nc4c3F)c12	PDC 899932-113-R3-J6 complex spheroid viability	0
C[C@@H](NC(=O)c1ncnc(N)c1Cl)c1ncc(C(=O)Nc2cc(C(F)(F)F)c(Cl)cn2)s1 + C=CC(=O)N1CCN(c2nc(OCC3CCCN3C)nc3c(F)c(-c4nc(N)cc(C)c4C(F)(F)F)c(Cl)cc23)C(C)C1	PDC 899932-113-R3-J6 complex spheroid viability	0
